- target_system: human A2a receptor (Homo sapiens, UniProt P29274)
- Sequence (P29274 whole entry): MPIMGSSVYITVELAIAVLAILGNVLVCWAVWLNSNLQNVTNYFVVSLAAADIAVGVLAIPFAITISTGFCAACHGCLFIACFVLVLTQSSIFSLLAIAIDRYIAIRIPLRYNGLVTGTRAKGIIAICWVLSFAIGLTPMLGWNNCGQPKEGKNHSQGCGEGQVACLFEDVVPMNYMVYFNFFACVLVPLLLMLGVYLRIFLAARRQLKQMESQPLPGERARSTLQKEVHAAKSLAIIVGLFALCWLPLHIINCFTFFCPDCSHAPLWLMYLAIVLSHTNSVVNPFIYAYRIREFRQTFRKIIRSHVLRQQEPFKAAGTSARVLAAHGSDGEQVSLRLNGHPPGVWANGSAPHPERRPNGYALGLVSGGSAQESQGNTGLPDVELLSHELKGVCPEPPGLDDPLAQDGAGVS
- method_summary: Adenosine antagonistic activity, radioligand binding, A2a receptor
- experimental_conditions: [3H]CGS 21680 20 nM
value_type: Ki (nM)
Enter your answer as a number in nM; do not include the unit.

Consider the reported Ki for these compounds:
> print(dat)
                        structure.as.smiles  reading
1  CC(C)n1nc(-c2c(-c3ccccc3)nn3ccc(OCCN(C)C)cc23)ccc1=O     2.35
2  CC(C)n1nc(-c2c(-c3ccccc3)nn3ccc(N4CCN(C)CC4)cc23)ccc1=O     1.28
3  CC(C)n1nc(-c2c(-c3ccccc3)nn3ccc(O)cc23)ccc1=O     1.05

// next item, Ki requested
Just so you know, measured Ki for CC(C)n1nc(-c2c(-c3ccccc3)nn3ccc(Oc4ccccn4)cc23)ccc1=O came out at 1.44
